Biological target: CHO cells expressing human CB2 receptors (Homo sapiens)
Construct: expressed in transfected cells; host or cells: CHO cells, stably transfected
Sequence (P34972 whole entry): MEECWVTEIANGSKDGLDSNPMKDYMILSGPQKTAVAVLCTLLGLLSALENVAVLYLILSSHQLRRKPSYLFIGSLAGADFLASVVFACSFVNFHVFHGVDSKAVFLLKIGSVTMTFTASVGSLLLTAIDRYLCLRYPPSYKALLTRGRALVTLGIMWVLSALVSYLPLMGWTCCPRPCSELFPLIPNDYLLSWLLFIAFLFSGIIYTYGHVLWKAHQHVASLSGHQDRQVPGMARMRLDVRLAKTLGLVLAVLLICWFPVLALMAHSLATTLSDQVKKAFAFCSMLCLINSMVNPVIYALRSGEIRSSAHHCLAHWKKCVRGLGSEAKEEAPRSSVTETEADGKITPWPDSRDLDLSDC
Experiment: cell-based LANCE cAMP assay
Conditions: forskolin-stimulated, RO-20-1724 present, FIG. 4
measured_metric: CB2 functional activity (LANCE cAMP signal)

* CCN(CC)c1ccc(CN(Cc2cc(OC)c(OC)c(OC)c2)S(=O)(=O)c2ccc(C=O)cc2)cc1 [Compound 18] | inverse agonists
* CCN(CC)c1ccc(CN(Cc2cc(OC)c(OC)c(OC)c2)S(=O)(=O)/C=C/c2ccccc2)cc1 [Compound 15] | inverse agonists

###

Molecular target: human CB1 receptors (Homo sapiens)
Sequence (P21554 whole entry): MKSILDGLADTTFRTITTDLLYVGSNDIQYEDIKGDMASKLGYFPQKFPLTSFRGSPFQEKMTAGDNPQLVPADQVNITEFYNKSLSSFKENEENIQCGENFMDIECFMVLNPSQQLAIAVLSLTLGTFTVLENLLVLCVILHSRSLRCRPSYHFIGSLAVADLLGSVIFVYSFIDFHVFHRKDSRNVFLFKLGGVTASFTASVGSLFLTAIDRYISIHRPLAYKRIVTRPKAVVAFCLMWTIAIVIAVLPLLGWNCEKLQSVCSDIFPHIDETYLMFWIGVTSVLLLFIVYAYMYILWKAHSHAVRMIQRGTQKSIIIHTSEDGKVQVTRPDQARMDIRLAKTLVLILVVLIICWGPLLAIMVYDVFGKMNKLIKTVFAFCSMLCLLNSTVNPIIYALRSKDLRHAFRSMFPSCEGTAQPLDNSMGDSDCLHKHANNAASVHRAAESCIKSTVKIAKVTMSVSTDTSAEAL
measured_metric: pKi
Worth noting: pKi values are minus log10 of concentrations stated in mol/L.

# get_value(readout='pKi', item= CCN(CC)c1ccc(CN(Cc2cc(OC)c(OC)c(OC)c2)C(=O)c2cnc3ccccc3n2)cc1 ) 4.89

Name the recorded pKi for CCCCCN(Cc1ccc(N(CC)CC)cc1)S(=O)(=O)/C=C/c1ccccc1 . 5.28

If you can, please state the reported pKi value of CCN(CC)c1ccc(CN(Cc2cccnc2)S(=O)(=O)c2ccc3ccccc3c2)cc1 . 4.92

Please look up its pKi: CCN(CC)c1ccc(CN(Cc2cc(OC)c(OC)c(OC)c2)S(=O)(=O)c2ccc(C(C)C)cc2)cc1 6.91

Endpoint output: pKi of CCN(CC)c1ccc(CN(Cc2cc(OC)c(OC)c(OC)c2)C(=O)c2cccs2)cc1 . Value? 5.48

Any idea what pKi was measured for CCN(CC)c1ccc(CN(Cc2cccnc2)S(=O)(=O)/C=C/c2ccccc2)cc1 ? 5.26

If you can, please state the reported pKi value of CCN(CC)c1ccc(CN(Cc2ccc3c(c2)OCO3)C(=O)c2cccs2)cc1 . 6.14
